Just for reference, patent US20180185504A1 is where these values come from.

So I've got a bunch of binders here, and I need their IC50 of Blocking 5 nM PRL [M] (STAT5-Luc reporter, HEK293/hPRLR/STAT5-Luc cells) values.
- TARGET OR TEST SYSTEM: T1, human PRLR on cells (endogenous on T47D, T47D#11, MCF7); introduced in HEK293/hPRLR/STAT5-Luc, 293/hPRLR, … (human, UniProt P16471 25-622)
- T1 sequence: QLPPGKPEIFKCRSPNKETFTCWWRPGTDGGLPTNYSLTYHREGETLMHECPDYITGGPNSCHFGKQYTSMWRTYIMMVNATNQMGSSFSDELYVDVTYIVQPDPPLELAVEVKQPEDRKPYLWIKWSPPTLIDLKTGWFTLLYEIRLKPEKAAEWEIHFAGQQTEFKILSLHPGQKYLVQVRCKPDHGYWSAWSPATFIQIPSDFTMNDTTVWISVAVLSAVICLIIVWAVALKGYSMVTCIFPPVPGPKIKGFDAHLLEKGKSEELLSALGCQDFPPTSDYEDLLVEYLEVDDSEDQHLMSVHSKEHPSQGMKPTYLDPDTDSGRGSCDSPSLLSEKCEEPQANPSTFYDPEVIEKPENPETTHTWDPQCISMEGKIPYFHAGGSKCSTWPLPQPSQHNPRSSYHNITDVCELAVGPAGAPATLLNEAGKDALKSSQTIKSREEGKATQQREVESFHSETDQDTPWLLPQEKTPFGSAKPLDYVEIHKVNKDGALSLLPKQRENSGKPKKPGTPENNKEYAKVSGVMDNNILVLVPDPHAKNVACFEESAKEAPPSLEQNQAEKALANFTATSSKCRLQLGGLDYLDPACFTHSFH
- ASSAY EXPLANATION: cell-based or functional assay
Answers are plain numbers, in M.

Give me IC50 of Blocking 5 nM PRL [M] (STAT5-Luc reporter, HEK293/hPRLR/STAT5-Luc cells) for each of these binders, listed below.
1. H1H6803P (antibody, human IgG1, V domains shown, human IgG1 Fc (H1H)) VH: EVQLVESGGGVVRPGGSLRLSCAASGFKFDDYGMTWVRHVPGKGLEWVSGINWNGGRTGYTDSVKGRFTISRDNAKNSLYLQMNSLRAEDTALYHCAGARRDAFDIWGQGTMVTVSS VL: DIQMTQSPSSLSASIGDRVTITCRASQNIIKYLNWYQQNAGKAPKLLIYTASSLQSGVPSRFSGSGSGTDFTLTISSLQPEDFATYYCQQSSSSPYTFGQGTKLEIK
2. H1H6804P (antibody, human IgG1, V domains shown, human IgG1 Fc (H1H)) VH: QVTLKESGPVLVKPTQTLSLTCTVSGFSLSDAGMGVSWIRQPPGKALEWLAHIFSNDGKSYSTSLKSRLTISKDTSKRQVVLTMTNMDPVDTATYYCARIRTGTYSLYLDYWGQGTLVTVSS VL: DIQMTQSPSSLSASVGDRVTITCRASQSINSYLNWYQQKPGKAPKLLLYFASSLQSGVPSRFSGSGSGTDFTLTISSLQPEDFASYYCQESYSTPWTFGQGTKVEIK
3. H1H6801P (antibody, human IgG1, V domains shown, human IgG1 Fc (H1H)) VH: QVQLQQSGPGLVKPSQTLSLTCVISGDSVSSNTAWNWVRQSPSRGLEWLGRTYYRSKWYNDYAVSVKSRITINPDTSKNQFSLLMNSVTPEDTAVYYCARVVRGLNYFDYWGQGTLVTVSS VL: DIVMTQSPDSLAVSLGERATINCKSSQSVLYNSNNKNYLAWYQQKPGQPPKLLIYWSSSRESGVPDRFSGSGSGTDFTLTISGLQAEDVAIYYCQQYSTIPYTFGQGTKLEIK

Result:
["6.27e-10", "7.89e-09", "1.4e-10"]

Problem: May I ask what IC50 of Blocking 5 nM PRL [M] (STAT5-Luc reporter, HEK293/hPRLR/STAT5-Luc cells) has been recorded for H1H6953N (antibody, human IgG1, V domains shown, also called H1M6953N) VH: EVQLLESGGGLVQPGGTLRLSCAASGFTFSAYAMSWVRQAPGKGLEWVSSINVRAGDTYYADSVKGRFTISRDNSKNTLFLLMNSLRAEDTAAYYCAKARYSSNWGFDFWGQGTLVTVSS VL: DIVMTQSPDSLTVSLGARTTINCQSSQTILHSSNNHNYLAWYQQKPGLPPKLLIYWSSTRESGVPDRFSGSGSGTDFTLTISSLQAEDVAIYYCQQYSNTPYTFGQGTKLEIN ?
Result: 1.05e-10
